Origin of values: PubChem BioAssay (NCI)

Test system: OVCAR-5 ovarian
Assay: NCI-60 one-dose screen, 48 h
Conditions: 10 µM unless noted
This is part of a sample that, as a whole, favours compounds with a hit. Of some 83,000 tested, about 20% had one in any assay. Calls of active or inactive are those of the source. Rule for the calls: active = growth percent below 10; inactive = the rest.
Possible outcomes: True (active), False (inactive)

[
  {
    "MOLECULE": "O=C(NCCO)Nc1ccc(-c2nc(N3CCOCC3)c3cccn3n2)cc1",
    "CLASS": "True"
  },
  {
    "MOLECULE": "CC(N)C(Cc1ccccc1)c1ccc(Cl)cc1 (stereo not given)",
    "CLASS": "False"
  },
  {
    "MOLECULE": "COc1ccc(C2OC(c3cc(-c4cc5ccccc5o4)nn3-c3ccccc3)=NN2C(C)=O)cc1 (stereo not given)",
    "CLASS": "False"
  },
  {
    "MOLECULE": "CCN1CCN(Cc2ccc(NC(=O)Nc3nc(-c4cc(OC)c(OC)c(OC)c4)cs3)cc2C(F)(F)F)CC1",
    "CLASS": "False"
  },
  {
    "MOLECULE": "O=C(Nc1ccc(-c2ccnc(Nc3ccc(N4CCOCC4)cc3)n2)cc1)[C@@H]1CCCN1",
    "CLASS": "False"
  },
  {
    "MOLECULE": "Cc1ccc(-c2nc3ccc(Cl)cn3c2NC2CCCCC2)o1",
    "CLASS": "False"
  },
  {
    "MOLECULE": "Cn1cnc2c(F)c(Nc3ccc(Br)cc3F)c(C(=O)NOCCO)cc21",
    "CLASS": "True"
  },
  {
    "MOLECULE": "CC(=O)c1cnc2ccc(-c3cc(Cl)c(O)c(Cl)c3)nc2c1NC1CCC(CN(C)C)CC1 (stereo not given)",
    "CLASS": "True"
  },
  {
    "MOLECULE": "CC(C)(C)OC(=O)N1CCC(O)[C@@H](O[Si](c2ccccc2)(c2ccccc2)C(C)(C)C)[C@H]1/C=C/c1ccccc1 (stereo not given in full)",
    "CLASS": "False"
  },
  {
    "MOLECULE": "Cc1ncc(-c2ccnc(Nc3ccc(S(C)(=O)=O)cc3)n2)n1C(C)C",
    "CLASS": "True"
  },
  {
    "MOLECULE": "COc1cc(NC2CCC(=O)N2c2ccc(Cl)cc2Cl)cc(OC)c1OC (stereo not given)",
    "CLASS": "False"
  },
  {
    "MOLECULE": "CNC(=O)c1ccc(Nc2ncc(C(F)(F)F)c(NCc3nccnc3N(C)S(C)(=O)=O)n2)cc1",
    "CLASS": "True"
  },
  {
    "MOLECULE": "Cn1cnc2c(F)c(Nc3ccc(Br)cc3Cl)c(C(=O)NOCCO)cc21",
    "CLASS": "True"
  },
  {
    "MOLECULE": "COC(=O)[C@]12CC[C@@H](C)[C@H](C)[C@@H]1C1=CC[C@@H]3[C@@]4(C)C(C#N)=CC(C)=C4CC[C@@]3(C)[C@]1(C)CC2",
    "CLASS": "False"
  },
  {
    "MOLECULE": "CCN(CC)CCNc1ccc(N=Nc2cnc3ccccc3c2)c2ccccc12",
    "CLASS": "True"
  },
  {
    "MOLECULE": "COC(=O)C1=C(C(=O)OC)C23C=C(C)C1C2=C(C)C1(CC1)[C@@](C)(O)C3=O (stereo not given in full)",
    "CLASS": "True"
  },
  {
    "MOLECULE": "CCCCCCCCCNCCCCCCCCC",
    "CLASS": "False"
  },
  {
    "MOLECULE": "C[C@@H](N)c1ccc(C(=O)Nc2ccnc3[nH]ccc23)cc1",
    "CLASS": "False"
  },
  {
    "MOLECULE": "CC(C)(C)C(=O)OCOP(=O)(OCOC(=O)C(C)(C)C)C1CCCN(OC(=O)c2ccccc2)C1=O (stereo not given)",
    "CLASS": "False"
  },
  {
    "MOLECULE": "C/C(=N\\NC(=O)Cn1c(-c2ccc(S(C)(=O)=O)cc2)nc2ccccc21)c1ccc(Cl)cc1",
    "CLASS": "False"
  }
]
